meta.source: PubChem BioAssay AID274

Each item that follows carries a reported T/C.
- Tested on: BDF1 mice, Lewis lung carcinoma iv, survival T/C
- test-name: NCI In Vivo Anticancer Drug Screen. Data for tumor model Lewis Lung Carcinoma (intravenous) in B6D2F1 (BDF1) mice
- conditions: endpoint: median survival time; dose: 20.0 mg/kg/injection; schedule: Q01DX009 (ip); vehicle: saline; higher = longer survival
Inconclusive results and toxic doses are left out.

Solved entries:
compound	T/C
Nc1nc(=S)c2ncn(C3OC(CO)CC3O)c2[nH]1 (centres undefined)	87 % of control
NC(=O)c1ncn(C2OC(CO)C(O)C2O)n1 (centres undefined)	110 % of control
CS(=O)(=O)OCCCNCCCOS(C)(=O)=O	108 % of control

Turning to the following compound.
What value of T/C has been recorded for this entry: CC1CCOS(=O)O1 (centres undefined) 94 % of control

====

- Test system: BDF1 mice, Lewis lung carcinoma iv, survival T/C
- test-name: NCI In Vivo Anticancer Drug Screen. Data for tumor model Lewis Lung Carcinoma (intravenous) in B6D2F1 (BDF1) mice
- conditions: endpoint: median survival time; dose: 50.0 mg/kg/injection; schedule: Q01DX009 (ip); vehicle: saline
Inconclusive results and toxic doses are left out. Rule for the calls: active = survival T/C of 150% or more; inactive = T/C below 125% in these data.
Mark one answer only. Choices: active, inactive

compound	group
Nc1ccn([C@@H](C=O)O[C@@H](C=O)CO)c(=O)n1	inactive
O=C1NC(O)CCN1C1OC(CO)C(O)C1O (stereo not drawn)	inactive
CC(=O)OCc1ncccc1OC(C)=O	inactive
C1OC1CO[C@@H]1CO[C@H]2[C@@H]1OC[C@H]2OCC1CO1 (stereo partly drawn)	inactive
OCCNCCNc1ccnc2cc(Cl)ccc12	inactive
OCC1(CO)COC2(CCCCC2)N1	inactive
C(CSC1=NCCN1)CSC1=NCCN1	inactive
CCC1OCCN1C(C)C (stereo not drawn)	inactive
CCOC(=O)C1=C(C#N)C2(CCC(OCc3ccccc3)CC2)C(=O)O1 (stereo not drawn)	inactive
O=C1C=CC(n2cc(F)c(=O)[nH]c2=O)O1 (stereo not drawn)	inactive

What call does the record list for c1ccc(CN2CCOC2)cc1 ? inactive

What classification did C=C(C)[C@@H]1CCc2c(O)c(O)c(=O)cc(C)c2C1 end up with in this test? inactive

Can you look up the reported call for C[N+](C)(C)c1ncnc2nc[nH]c12 for me? inactive

Kindly provide the recorded test outcome for the following compound: CC1(C)COCN1COCCOCN1COCC1(C)C inactive

Please share the test call associated with O=P1(NCCCl)OCCCN1CCCl (stereo not drawn) . active

Outcome? CC(=O)N(C)c1ccc(Nc2cc(C)[nH]c3ccc4ncnc4c23)cc1 inactive

Please let me know the test result on file for Cc1ccccc1N(CC1CO1)CC1CO1 (stereo not drawn) . inactive

Would you mind telling me which call this test gave O=C(O)C(CSC(c1ccccc1)(c1ccccc1)c1ccccc1)N=Cc1cccs1 (stereo not drawn) ? inactive

Dear all, I need the recorded test outcome for CCC(C(=O)O)C(=O)O.[NH-]CC1CCCC[N-]1.[Pt+2] , thank you. inactive

Give the logged outcome of this assay for the following compound: O=C1C=CC(=O)O1 (tested in a mixture with another compound) inactive

====

- Test system: BDF1 mice, Lewis lung carcinoma iv, survival T/C
- test-name: NCI In Vivo Anticancer Drug Screen. Data for tumor model Lewis Lung Carcinoma (intravenous) in B6D2F1 (BDF1) mice
- conditions: endpoint: median survival time; dose: 50.0 mg/kg/injection; schedule: Q01DX009 (ip); vehicle: saline with Tween-80; higher = longer survival
Toxic doses and inconclusive results are not listed.
Recorded T/C for the following molecules

For orientation, consider the following solved cases.
molecule	T/C
COP12(OCCO1)SC(C(F)(F)F)=C(C(F)(F)F)S2	95 % of control
COC1/C=C/O[C@@]2(C)Oc3c(C)c(O)c4c(O)c(cc(O)c4c3C2=O)NC(=O)/C(C)=C\C=C\[C@H](C)C(O)[C@@H](C)[C@@H](O)[C@@H](C)[C@H](OC(C)=O)[C@@H]1C (some centres undefined)	103 % of control
O=[N+]([O-])c1ccc(-n2[nH]nnc2=S)cc1	92 % of control
OCCOCC(F)(F)F	90 % of control
O=C(O)CC[S-].[Ag+]	99 % of control

T/C for Cc1ccc2c(c1)N=C(Nc1ccccc1)N=S2(C)=O (centres undefined) ? 112 % of control

Which value of T/C has been reported for CN1C(=O)C(=Cc2ccc(O)cc2)C(=O)N(C)C1=O in the records? 106 % of control

====

- System: BDF1 mice, Lewis lung carcinoma iv, survival T/C
- test-name: NCI In Vivo Anticancer Drug Screen. Data for tumor model Lewis Lung Carcinoma (intravenous) in B6D2F1 (BDF1) mice
- conditions: endpoint: median survival time; dose: 25.0 mg/kg/injection; schedule: Q01DX009 (ip); vehicle: saline with Tween-80; higher = longer survival
Toxic doses and inconclusive results are not listed.
test-readout: T/C

Reference set (4 entries):
compound	T/C
O=C1N=C(Oc2ccccc2)SC1=O	97 % of control
CN(C)CCNc1ccc([N+](=O)[O-])c2sc3ccccc3c(=O)c12	104 % of control
OC1CCCC2CCCNC12 (configuration not stated)	96 % of control
CN1C(=O)C(=Cc2ccc(O)cc2)C(=O)N(C)C1=O	105 % of control

// T/C lookup, key: Nc1nc(N)c2c(Cl)c(CNc3ccc(Cl)c(Cl)c3)ccc2n1 111 % of control

If you can, please state the reported T/C value of COc1cc2ccnc(C=O)c2cc1OC . 107 % of control

Value lookup for T/C; key = O=C(N/N=C\c1cc(Br)cc(Br)c1O)N/N=C/c1cc(Br)cc(Br)c1O 96 % of control

Looking for the measured T/C of O=CN(SSN(C=O)C1CCCCC1)C1CCCCC1 , can you help? 108 % of control

====

- Tested on: BDF1 mice, Lewis lung carcinoma iv, survival T/C
- test-name: NCI In Vivo Anticancer Drug Screen. Data for tumor model Lewis Lung Carcinoma (intravenous) in B6D2F1 (BDF1) mice
- conditions: endpoint: median survival time; dose: 200.0 mg/kg/injection; schedule: Q01DX009 (ip); vehicle: saline with Tween-80; higher = longer survival
Toxic doses and inconclusive results are not listed.
# T/C listing for each entry below

// worked examples, T/C included
molecule	T/C
O=C1NC(=O)/C(=C/C=C/c2ccccc2)S1	105 % of control
Cc1ccc2c(c1)N=C(Nc1ccccc1)N=S2(C)=O (configuration not stated)	116 % of control
CC(C#N)(C#N)N=Nc1ccc(Cl)cc1Cl	95 % of control
OCCOCC(F)(F)F	103 % of control
C[C@H](CCC(=O)O)[C@H]1CC[C@H]2[C@@H]3[C@H](O)C[C@@H]4C[C@H](O)CC[C@]4(C)[C@H]3C[C@H](O)[C@]12C (tested in a mixture with another compound)	121 % of control

Please tell me: T/C of CCO/C=C1\SC(=S)N(c2ccccc2C)C1=O , system BDF1 mice, Lewis lung carcinoma iv, survival T/C? 99 % of control

Enter reported T/C observed with BDF1 mice, Lewis lung carcinoma iv, survival T/C for Nc1cc(=O)[nH][nH]1 91 % of control

Lookup: T/C / BDF1 mice, Lewis lung carcinoma iv, survival T/C / O=C(O)CC[S-].[Ag+] 91 % of control

Give the reported T/C for C(COCCOCC1CO1)OCCOCC1CO1 (configuration not stated) (system: BDF1 mice, Lewis lung carcinoma iv, survival T/C). 112 % of control

====

- System: BDF1 mice, Lewis lung carcinoma iv, survival T/C
- test-name: NCI In Vivo Anticancer Drug Screen. Data for tumor model Lewis Lung Carcinoma (intravenous) in B6D2F1 (BDF1) mice
- conditions: endpoint: median survival time; dose: 0.78 mg/kg/injection; schedule: Q01DX009 (ip); vehicle: saline with Tween-80; higher = longer survival
Toxic doses and inconclusive results are not listed.
List of T/C values.

Please review the entries below; each comes with its answer.
molecule	result
Cn1cnc([N+](=O)[O-])c1Sc1nc(N)nc2c1ncn2C1OC(CO)C(O)C1O (stereo unspecified)	97 % of control
NC(N)=NC(N)=Nc1ccc(-c2ccc(N=C(N)N=C(N)N)cc2)cc1	110 % of control
CCCCCCCCCCCCN1C(C)=CS/C1=C\C=C\c1scc(C)[n+]1CCCCCCCCCCCC	95 % of control
Cc1cc(NCCCCCCCNc2cc(C)nc3cc(N)ccc23)c2ccc(N)cc2n1	100 % of control
CC(C)(C)N1CC1CNC(=O)C(=O)NCC1CN1C(C)(C)C (stereo unspecified)	111 % of control

Next:
Dear colleague, I am looking for the recorded T/C of the following molecule: Cc1ccc[c]([Hg][Cl])c1N=Nc1ccccc1 100 % of control

====

- Tested on: BDF1 mice, Lewis lung carcinoma iv, survival T/C
- test-name: NCI In Vivo Anticancer Drug Screen. Data for tumor model Lewis Lung Carcinoma (intravenous) in B6D2F1 (BDF1) mice
- conditions: endpoint: median survival time; dose: 6.25 mg/kg/injection; schedule: Q01DX009 (ip); vehicle: Klucel (hydroxypropylcellulose) (HPC)
Toxic doses and inconclusive results are not listed. The calls were made as follows: active = survival T/C of 150% or more; inactive = T/C below 125% in these data.
Just give me one of these, please: active, inactive

compound	group
CC(C)C(=O)OCC1OC(n2cnc3c(=S)nc(N)[nH]c32)C(OC(=O)C(C)C)C1OC(=O)C(C)C (stereo not given)	inactive
Cc1c2ccncc2c(C)c2c1[nH]c1ccccc12	inactive
COc1cc2c[n+](C)c3c4cc5c(cc4ccc3c2cc1OC)OCO5 (tested in a mixture with another compound)	active

Test call, this compound: CCCCCC[C@H]([C@H](C)O)n1cnc2c(N)ncnc21 inactive
